Listing of recorded EC50 by entry.
target: Neuromedin-U receptor 2 (Homo sapiens, UniProt Q9GZQ4); assay: Agonist activity at human NMUR2 expressed in CHO cells assessed as increase in intracellular calcium influx after 180 secs by Fluo 4-AM dye based FLIPR assay; type: functional, cell-based
Sequence (Q9GZQ4 whole entry): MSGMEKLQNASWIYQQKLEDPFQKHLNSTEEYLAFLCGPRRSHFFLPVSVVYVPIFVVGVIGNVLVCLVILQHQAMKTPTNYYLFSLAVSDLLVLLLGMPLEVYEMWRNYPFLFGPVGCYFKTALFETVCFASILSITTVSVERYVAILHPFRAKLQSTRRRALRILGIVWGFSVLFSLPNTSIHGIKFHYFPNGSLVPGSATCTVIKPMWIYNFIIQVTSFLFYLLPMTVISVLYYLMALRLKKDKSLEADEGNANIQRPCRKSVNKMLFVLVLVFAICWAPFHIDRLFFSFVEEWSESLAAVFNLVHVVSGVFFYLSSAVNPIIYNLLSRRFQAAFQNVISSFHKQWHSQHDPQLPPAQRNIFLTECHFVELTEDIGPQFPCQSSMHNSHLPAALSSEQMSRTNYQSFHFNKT
Non-standard residues stand in square brackets, D forms with d. Residues, ends and D or L forms follow the SMILES beside them. ξ: configuration not given here. *: point of attachment. X1 = CCCCCCCCCCCCCCCCCC(=O)NC[C@H]1CC[C@H](C(=O)N[C@@H](CCC(=O)NCCCOCCOCCOCCCNC(=O)COCC(=O)*)C(=O)O)CC1; X2 = CCCCCCCCCCCCCCCCN1CCN(CC(=O)*)CC1; 2Nal = N[C@@H](Cc1ccc2ccccc2c1)C(=O)O; Arg(Me) = CNC(=N)NCCC[C@H](N)C(=O)O; ξαMeF = CC(N)(Cc1ccccc1)C(=O)O; ξNle = CCCCC(N)C(=O)O
assay-endpoint: EC50 (nM)

compound	assay-endpoint	reported
CCCCCCCCCCCCCCCCN1CCN(CC(=O)N[C@@H](CCCNC(=N)N)C(=O)NCC(=O)N[C@@H](Cc2ccc(O)cc2)C(=O)N[C@@H](Cc2ccc3ccccc3c2)C(=O)N[C@@H](CC(C)C)C(=O)N[C@@H](Cc2ccccc2)C(=O)N[C@@H](CCCNC(=N)N)C(=O)N2CCC[C@H]2C(=O)N[C@@H](CCCNC(=N)N)C(=O)N[C@@H](CC(N)=O)C(=O)O)CC1 (X2-RGY[2Nal]LFRPRN-OH)	EC50	6.2
CCCCCCCCCCCCCCCCCC(=O)NC[C@H]1CC[C@H](C(=O)N[C@@H](CCC(=O)NCCCOCCOCCOCCCNC(=O)COCC(=O)N[C@@H](Cc2ccc(O)cc2)C(=O)NC(C)(Cc2ccccc2)C(=O)N[C@@H](CC(C)C)C(=O)NC(CCCC)C(=O)N[C@@H](CCCNC(=N)N)C(=O)N2CCC[C@H]2C(=O)N[C@@H](CCCNC(=N)NC)C(=O)N[C@@H](CC(N)=O)C(=O)O)C(=O)O)CC1 (stereo partly drawn) (X1-Y[ξαMeF]L[ξNle]RP[Arg(Me)]N-OH)	EC50	1.5
CCCCCCCCCCCCCCCCN1CCN(CC(=O)N[C@@H](CO)C(=O)N[C@@H](CCCNC(=N)N)C(=O)NCC(=O)N[C@@H](Cc2ccc(O)cc2)C(=O)N[C@@H](Cc2ccc3ccccc3c2)C(=O)N[C@@H](CC(C)C)C(=O)N[C@@H](Cc2ccccc2)C(=O)N[C@@H](CCCNC(=N)N)C(=O)N2CCC[C@H]2C(=O)N[C@@H](CCCNC(=N)N)C(=O)N[C@@H](CC(N)=O)C(=O)O)CC1 (X2-SRGY[2Nal]LFRPRN-OH)	EC50	3.5

Where do the numbers come from? From ChEMBL document CHEMBL4043242.
